Test: Oral PK in the rat LPS studies (free plasma concentration)
Format: in vivo
Details: plasma, po, p.o. 5 mg/kg, 5.5h, read-out: Free Plasma Conc

[
  {
    "compound": "CC(C)n1c([C@H](C)Nc2ncnc(N)c2C#N)cc2cccc(-c3ccc(=O)n(C)c3)c2c1=O [Compound AA, reference compound]",
    "concentration at […] [nM]": 4.6
  },
  {
    "compound": "C[C@H](NC(=O)c1c(N)nn2cccnc12)c1cc2cccc(C#Cc3cnn(C)c3)c2c(=O)n1-c1ccccc1",
    "concentration at […] [nM]": 24.7
  }
]

---

Target: PI3K γ (Homo sapiens (Human))
Sequence (P48736 whole entry): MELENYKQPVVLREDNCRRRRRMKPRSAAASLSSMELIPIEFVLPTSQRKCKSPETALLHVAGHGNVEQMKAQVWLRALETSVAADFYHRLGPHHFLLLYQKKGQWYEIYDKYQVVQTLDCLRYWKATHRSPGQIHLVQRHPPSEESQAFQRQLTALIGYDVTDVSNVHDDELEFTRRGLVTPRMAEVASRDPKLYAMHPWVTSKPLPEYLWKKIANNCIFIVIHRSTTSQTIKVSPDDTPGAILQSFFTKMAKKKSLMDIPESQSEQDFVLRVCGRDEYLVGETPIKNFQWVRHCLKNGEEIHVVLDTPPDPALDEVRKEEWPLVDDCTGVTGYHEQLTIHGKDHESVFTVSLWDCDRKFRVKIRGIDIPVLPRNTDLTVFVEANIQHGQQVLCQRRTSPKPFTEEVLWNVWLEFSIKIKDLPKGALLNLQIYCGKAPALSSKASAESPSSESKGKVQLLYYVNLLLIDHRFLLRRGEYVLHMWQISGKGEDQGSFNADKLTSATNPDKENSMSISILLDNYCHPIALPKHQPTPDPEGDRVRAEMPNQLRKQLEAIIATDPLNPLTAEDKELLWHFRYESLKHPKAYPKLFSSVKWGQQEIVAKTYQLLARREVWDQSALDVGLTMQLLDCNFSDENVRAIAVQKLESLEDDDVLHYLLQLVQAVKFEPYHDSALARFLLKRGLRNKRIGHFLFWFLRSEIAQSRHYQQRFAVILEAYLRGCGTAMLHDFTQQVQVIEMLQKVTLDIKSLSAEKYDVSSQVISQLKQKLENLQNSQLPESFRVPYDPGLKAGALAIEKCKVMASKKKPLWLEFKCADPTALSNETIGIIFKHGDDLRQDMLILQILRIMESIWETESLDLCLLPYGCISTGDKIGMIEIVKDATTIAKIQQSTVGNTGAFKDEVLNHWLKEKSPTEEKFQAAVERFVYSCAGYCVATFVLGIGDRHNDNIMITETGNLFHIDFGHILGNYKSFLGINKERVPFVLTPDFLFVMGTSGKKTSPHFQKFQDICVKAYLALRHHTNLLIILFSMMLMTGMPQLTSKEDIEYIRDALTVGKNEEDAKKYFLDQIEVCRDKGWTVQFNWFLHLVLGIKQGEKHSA
Test: PI3-Kinase Promega ADP-Glo Max assay
Type: biochemical

[
  {
    "entry_smiles": "C[C@H](NC(=O)c1c(N)nn2cccnc12)c1cc2cccc(C#Cc3ccn(C)n3)c2c(=O)n1-c1ccccc1",
    "PI3K δ/PI3K γ IC50 (selectivity)": "Y (Y = 50 to <850)"
  },
  {
    "entry_smiles": "Cn1cc(C#Cc2cccc3cc(CNC(=O)c4c(N)nn5cccnc45)n(-c4ccccc4)c(=O)c23)cn1",
    "PI3K δ/PI3K γ IC50 (selectivity)": "X (X = 10 to <50)"
  },
  {
    "entry_smiles": "C[C@H](NC(=O)c1c(N)nn2cccnc12)c1cc2cccc(C#Cc3cnn(C)c3)c2c(=O)n1CCS(=O)(=O)N(C)C",
    "PI3K δ/PI3K γ IC50 (selectivity)": "Y (Y = 50 to <850)"
  },
  {
    "entry_smiles": "C[C@H](NC(=O)c1c(N)nn2cccnc12)c1cc2cccc(C#Cc3cc[nH]c(=O)c3)c2c(=O)n1-c1ccccc1",
    "PI3K δ/PI3K γ IC50 (selectivity)": "X (X = 10 to <50)"
  },
  {
    "entry_smiles": "C[C@H](NC(=O)c1c(N)nn2cccnc12)c1cc2cccc(C#CCO)c2c(=O)n1-c1ccccc1",
    "PI3K δ/PI3K γ IC50 (selectivity)": "X (X = 10 to <50)"
  }
]
